Record form. Attribute: pKd. Fill in for each entry.
molecular target: DLG4_2, P78352; assay: holdup assay; set-up: key: below the threshold = too weak to quantify, mostly under pKd 3.1 to 4; conditions: plain residues with an end cap or a label only (N-terminal biotin on a linker: ado-ado)
Sequence (P78352 155-259): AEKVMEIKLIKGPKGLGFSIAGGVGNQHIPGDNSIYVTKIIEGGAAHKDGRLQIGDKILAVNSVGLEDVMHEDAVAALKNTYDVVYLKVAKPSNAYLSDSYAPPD
One number for each entry.

Some solved entries appear below for comparison.
VDSTVKVWTC [TRAF7, Q6Q0C0]; 3.7
MLSKQSESAI [FLVCR1, Q9Y5Y0]; 3.84
SGSLKLMTTV [DACT1, Q9NYF0]; 5.22
RRRESYSTTV [EVI5, O60447]; 5.87
VNKSKLLTDV [KCNA1, Q09470]; 4.43
SAAKVLTSMC [GHRHR, Q02643]; 3.63

Go through the list and state pKd for each entry.
1. QHKTQLQTLI [BPIFA2, Q96DR5]
2. KSGKQTMLVV [TRIM29, Q14134]
3. PPYRHRNTVV [ERBB4, Q15303]
4. PEYLGLDVPV [ERBB2, P04626]

4.56
3.79
4.97
3.48
